These entries and their values trace back to patent US11116757B2.

protocol.text: in vivo
condition.set: male, Testis Concentration, Single Dose (0 hr), time 24.4 hr
readout.name: concentration at 24.4 h

Exercise: Bench note: what concentration at 24.4 h did CCCCN1CCC(N(Cc2ccccc2)C(=O)Nc2ccc(Cl)c(Cl)c2)CC1 show?
Key: 4.4 µM

----------
test.target: DCN1-UBC12 interaction (Homo sapiens (Human))
protocol.text: biochemical
Type: binding
condition.set: Table 4, commercial compounds; read-out: TR-FRET IC50
readout.name: IC50

Cc1cccc(NC(=O)C2CCN(C(=O)c3cccc4ccccc34)CC2)c1 [C63]: > 67.6 µM
CC(=O)Nc1ccc(NC(=O)C2CCN(C(=O)c3cccs3)CC2)cc1 [C35]: > 67.6 µM
Cc1cccc(NC(=O)C2CCN(C(=O)c3cccc(F)c3)CC2)c1 [C44]: > 67.6 µM

Exercise: IC50 for CCOc1ccc(NC(=O)C2CCN(C(=O)c3ccccc3Cl)CC2)cc1 [C48] ?
Key: > 67.6 µM

----------
test.target: DCN1-UBC12 interaction (Homo sapiens (Human), UniProt Q96GG9)
Sequence (Q96GG9 60-248 limits assumed): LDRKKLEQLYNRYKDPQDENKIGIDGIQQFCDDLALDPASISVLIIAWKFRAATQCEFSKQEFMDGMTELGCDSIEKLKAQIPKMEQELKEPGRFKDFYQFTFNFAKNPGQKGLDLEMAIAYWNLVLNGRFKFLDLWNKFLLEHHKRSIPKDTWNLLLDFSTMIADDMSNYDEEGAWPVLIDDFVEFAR
protocol.text: biochemical
Format: binding
condition.set: read-out: TR-FRET IC50
compounds and their reported IC50

Some entries whose results are on file:
CCN1CCC(NC(=O)Nc2cccc(C(F)(F)F)c2)CC1: 49.7 µM
C=CC(=O)NCCCN(C(=O)Nc1cccc(C(F)(F)F)c1)C1CCN(C(C)CCC)CC1 (stereo not shown) [drawing 834]: 3.33 µM

Exercise: Look up IC50: O=C(Nc1cc(F)cc(C(F)(F)F)c1)N(Cc1ccccc1)C1CCN(Cc2cc(F)c(F)c(F)c2)CC1
Key: > 20.9 µM

Exercise: Proceed to O=C(c1cccc(Br)c1)N1CCC(c2nc3cc(Cl)ccc3s2)CC1
Key: > 60.8 µM

Exercise: What do you have for CCCN1CCC(NC(=O)Nc2cccc(Cl)c2)CC1 ?
Key: > 77.1 µM

Exercise: // query: CCCC(C)N1CCC(N(Cc2ccccc2)C(=O)Nc2ccc(CC#N)cc2)CC1 (stereo not shown)
Key: 13.7 µM

Exercise: Now consider CCCC(C)N1CCC(N(Cc2ccccc2)C(=O)Nc2ccc(-c3ccc(OC)cc3)cc2)CC1 (stereo not shown) .
Key: 8.9 µM

Exercise: Would you kindly repeat that for Cc1cccc(CC(=O)NC2CCN(Cc3ccccc3)CC2)c1 ?
Key: < 0.0041 µM

Exercise: Follow-up entry: O=C(Nc1cccc2ccccc12)NC1CCN(Cc2ccccc2)CC1
Key: > 61.8 µM

Exercise: O=C(CN1CCC(Cc2ccccc2)CC1)Nc1cc(C(F)(F)F)cc(C(F)(F)F)c1 ?
Key: > 78.5 µM

Exercise: Now give it for O=C(Nc1ccc(F)c(Cl)c1)N(Cc1ccc2c(c1)OCO2)C1CCN(Cc2ccccc2)CC1 too.
Key: 50.7 µM

Exercise: What do we get for Cc1ccc(NC(=O)NC2CCN(Cc3ccccc3)CC2)cc1C ?
Key: > 67.6 µM

Exercise: Param item: O=C(Nc1cc(F)cc(C(F)(F)F)c1)N(Cc1ccccc1)C1CCN(Cc2ccc(Cc3ccccc3)cc2)CC1
Key: > 21.8 µM

Exercise: Lookup O=C(Nc1cccc(C(F)(F)F)c1)N(Cc1ccccc1)C1CCNCC1
Key: > 63.3 µM

Exercise: Next record, please: C=CS(=O)(=O)Nc1cccc(CN(C(=O)Nc2cccc(C(F)(F)F)c2)C2CCN(C(C)CCC)CC2)c1 (stereo not shown) [A27]
Key: 0.165 µM

Exercise: Same for Cc1cccc(C(=O)N2CCC(c3nc4ccccc4s3)CC2)c1
Key: 18 µM

Exercise: Ok, now CCCC(C)N1CCC(N(Cc2ccccc2)C(=O)Nc2ccc(C(=O)OC)cc2I)CC1 (stereo not shown)
Key: 37.8 µM

Exercise: Follow-up item: COc1ccc(CN(C(=O)Nc2cc(C)ccc2OC)C2CCN(C(C)=O)CC2)cc1
Key: > 67.6 µM

Exercise: Then what about the compound CCCC(C)N1CCC(N(Cc2ccccc2)C(=O)Nc2c(F)cc(F)cc2F)CC1 (stereo not shown) ?
Key: > 67.5 µM

Exercise: Next record, please: CCCC(C)N1CCC(N(Cc2ccccc2)C(=O)Nc2ccc(S(=O)(=O)Nc3ccc(OC)nn3)cc2)CC1 (stereo not shown)
Key: > 83.4 µM

Exercise: Continue with O=C(Nc1cccc(C(F)(F)F)c1)NC1CCN(Cc2ccc(Cl)cc2)CC1
Key: 33.4 µM

Exercise: Param item: COc1ccc(CN(C(=O)Nc2ccc(Cl)cc2)C2CCN(C(C)=O)CC2)cc1
Key: > 67.6 µM

Exercise: Now the same for O=C(c1ccccc1Cl)N1CCC(c2nc3ccccc3s2)CC1
Key: 18.5 µM

----------
In this section we review reported IC50 values for a set of molecules.
test.target: DCN1-UBC12 interaction (Homo sapiens (Human))
protocol.text: biochemical
Format: binding
condition.set: read-out: TR-FRET IC50

CCCC(C)N1CCC(N(Cc2ccccc2)C(=O)Nc2ccc(OC)cc2F)CC1 (stereo not drawn) [A290]: > 74 µM
O=C(Nc1ccc(CN2CCCC2)cc1)Nc1cccc(C(F)(F)F)c1 [B105]: > 71.3 µM
C=CS(=O)(=O)NCCCN(C(=O)Nc1cccc(C(F)(F)F)c1)C1CCN(C(C)CCC)CC1 (stereo not drawn) [drawing 838]: > 24 µM
C#CCCCN1CCC(N(Cc2ccccc2NC(=O)CCl)C(=O)Nc2ccc(Cl)c(Cl)c2)CC1 [A252]: > 6.46 µM
CCOC(=O)c1ccccc1NC(=O)N(C(C)C)C1CCN(C(C)=O)CC1 [B66]: > 67.6 µM
O=C(Nc1cccc(C(F)(F)F)c1)NC1CCN(Cc2cccc(F)c2)CC1 [A183]: 21.9 µM
CCn1cnc(NC(=O)NC2CCN(Cc3ccccc3)CC2)n1 [B47]: > 67 µM
CCN1CCC(N(Cc2ccco2)C(=O)Nc2cc(Cl)ccc2C)CC1 [B78]: > 67.6 µM

Exercise: Looking for the measured IC50 of C=CS(=O)(=O)NCCN(C(=O)Nc1cccc(C(F)(F)F)c1)C1CCN(C(C)CCC)CC1 (stereo not drawn) [A235] , can you help?
Key: > 41.1 µM

----------
test.target: DCN1-UBC12 interaction (Homo sapiens (Human), UniProt Q96GG9)
protocol.text: biochemical
Format: binding
condition.set: read-out: TR-FRET IC50
readout.name: pIC50
Reminder that pIC50 means the negative base-10 logarithm of the concentration expressed in mol/L.

Look over these answered cases.
CCCCN1CCC(N(Cc2ccc3c(c2)OCO3)C(=O)Nc2ccc(F)c(C(F)(F)F)c2)CC1: 5.63
CCCCN(C(=O)Nc1ccc(F)c(C(F)(F)F)c1)C1CCN(C(C)CCC)CC1 (stereo not shown): 5.99
CCCC(C)N1CCC(N(Cc2cccnc2)C(=O)Nc2ccc(Cl)c(Cl)c2)CC1 (stereo not shown): 7.04
CCCC(C)N1CCC(N(Cc2cccc(NC(=O)CCl)c2)C(=O)Nc2cccc(C(F)(F)F)c2)CC1 (stereo not shown) [A17]: 7.02
CCCC(C)N1CCC(N(Cc2ccccc2)C(=O)Nc2ccc(F)c(Cl)c2)CC1 (stereo not shown): 6.54
O=C(Nc1cccc(C(F)(F)F)c1)N[C@H]1CCN(Cc2ccccc2)C[C@@H]1O: 4.52
COc1cccc(C(=O)N2CCC(c3nc4ccccc4s3)CC2)c1: 4.18

// moving on: another record for pIC50
Exercise: What value of pIC50 has been recorded for this entry: Cc1ccc(CN(C(=O)Nc2cccc(C(F)(F)F)c2)C2CCN(Cc3ccccc3)CC2)o1
Key: 5.56

----------
# log10(IC50) listing for each entry below
test.target: DCN1-UBC12 interaction (Homo sapiens (Human), UniProt Q96GG9)
protocol.text: biochemical
Assay type: binding
condition.set: read-out: TR-FRET IC50
Would you kindly interpret these values as log10 of IC50 expressed in µM?

C#Cc1ccccc1CN1CCC(N(Cc2ccccc2)C(=O)Nc2cc(F)cc(C(F)(F)F)c2)CC1: 0.05
CCCC(C)N1CCC(N(Cc2ccccc2)C(=O)Nc2cccc(SC)c2)CC1 (stereo not drawn): -0.60
CCCC(C)N1CCC(N(Cc2ccccc2)C(=O)Nc2ccc(OC)c(F)c2)CC1 (stereo not drawn): 0.34
Cc1cccc(CN(C(=O)Nc2cccc(C(F)(F)F)c2)C2CCN(Cc3ccccc3)CC2)n1: 0.75

Exercise: Which log10(IC50) reading was recorded for the compound CC(c1ccccc1)N1CCC(N(Cc2ccccc2)C(=O)Nc2cc(F)cc(C(F)(F)F)c2)CC1 (stereo not drawn) ?
Key: 0.70

Exercise: One more compound: C=CC(=O)NCc1cccc(CN(C(=O)Nc2cccc(C(F)(F)F)c2)C2CCN(C(C)CCC)CC2)c1 (stereo not drawn) [A3]
Key: -1.74

Exercise: How about this compound: CCCC(C)N1CCC(N(Cc2cccnc2)C(=O)Nc2ccc(F)c(C(F)(F)F)c2)CC1 (stereo not drawn)
Key: -0.52

Exercise: Item: O=C(Nc1cccc(C(F)(F)F)c1)N(Cc1ccccc1)C1CC2CCC(C1)N2Cc1ccccc1 (stereo not drawn)
Key: 0.27

Exercise: Another compound to check: CCN1CCC(N(Cc2ccco2)C(=O)Nc2ccc(C)c(F)c2)CC1
Key: 1.38
